Test: Stability of pure lycopene isomers in n-hexane during storage at room temperature
Type: physicochemical
Settings: n-hexane, room temperature, absence of light, 1 day
OBSERVED PROPERTY: concentration all E

[[record]]
structure_notation = "CC(C)=CCC/C(C)=C/C=C/C(C)=C/C=C/C(C)=C\\C=C\\C=C(C)\\C=C\\C=C(C)\\C=C\\C=C(/C)CCC=C(C)C"
observed_property = "concentration all E"
result = "42.6 % of total isomers"

[[record]]
structure_notation = "CC(C)=CCC\\C(C)=C/C=C/C(C)=C/C=C/C(C)=C/C=C/C=C(C)/C=C/C=C(C)/C=C/C=C(\\C)CCC=C(C)C"
observed_property = "concentration all E"
result = "2.2 % of total isomers"

[[record]]
structure_notation = "CC(C)=CCC/C(C)=C/C=C/C(C)=C/C=C/C(C)=C/C=C/C=C(C)/C=C/C=C(C)/C=C/C=C(\\C)CCC=C(C)C"
observed_property = "concentration all E"
result = "86.0 % of total isomers"

[[record]]
structure_notation = "CC(C)=CCC/C(C)=C/C=C/C(C)=C\\C=C\\C(C)=C\\C=C\\C=C(C)\\C=C\\C=C(C)\\C=C\\C=C(/C)CCC=C(C)C"
observed_property = "concentration all E"
result = "5.8 % of total isomers"


* * *

Assay: Stability of pure lycopene isomers in n-hexane during storage at room temperature
Assay type: physicochemical
Conditions: n-hexane, room temperature, absence of light, 12 days
Description: Pure 5-Z, 9-Z, 13-Z and all-E lycopene were isolated from isomerised tomato oleoresin (submitted to 1 hour heating), by collecting the fractions containing the corresponding peaks after HPLC separation (see below the experimental conditions). […] Amount of total lycopene was determined by reverse phase HPLC on a C18 precolumn (ODS Hypersil, 5 μm, 20×4 mm; Hewlett Packard, Geneva, Switzerland) and a C18 column (Nova pak, 3.9 μm i.d.×300 mm length, Millipore, Volketswil, Switzerland). […]
Entries and their concentration all E values follow.
OBSERVED PROPERTY: concentration all E

[[record]]
structure_notation = "CC(C)=CCC/C(C)=C/C=C/C(C)=C\\C=C\\C(C)=C\\C=C\\C=C(C)\\C=C\\C=C(C)\\C=C\\C=C(/C)CCC=C(C)C"
observed_property = "concentration all E"
result = "7.0 % of total isomers"

[[record]]
structure_notation = "CC(C)=CCC/C(C)=C/C=C/C(C)=C/C=C/C(C)=C\\C=C\\C=C(C)\\C=C\\C=C(C)\\C=C\\C=C(/C)CCC=C(C)C"
observed_property = "concentration all E"
result = "65.5 % of total isomers"

[[record]]
structure_notation = "CC(C)=CCC\\C(C)=C/C=C/C(C)=C/C=C/C(C)=C/C=C/C=C(C)/C=C/C=C(C)/C=C/C=C(\\C)CCC=C(C)C"
observed_property = "concentration all E"
result = "5.6 % of total isomers"

[[record]]
structure_notation = "CC(C)=CCC/C(C)=C/C=C/C(C)=C/C=C/C(C)=C/C=C/C=C(C)/C=C/C=C(C)/C=C/C=C(\\C)CCC=C(C)C"
observed_property = "concentration all E"
result = "67.8 % of total isomers"


* * *

Entries and their concentration x-Z
Assay: Stability of pure lycopene isomers in n-hexane during storage at room temperature
Type: physicochemical
Conditions: n-hexane, room temperature, absence of light, 2 days
OBSERVED PROPERTY: concentration x-Z

[[record]]
structure_notation = "CC(C)=CCC/C(C)=C/C=C/C(C)=C/C=C/C(C)=C\\C=C\\C=C(C)\\C=C\\C=C(C)\\C=C\\C=C(/C)CCC=C(C)C"
result = "1.5 % of total isomers"

[[record]]
structure_notation = "CC(C)=CCC/C(C)=C/C=C/C(C)=C\\C=C\\C(C)=C\\C=C\\C=C(C)\\C=C\\C=C(C)\\C=C\\C=C(/C)CCC=C(C)C"
result = "5.9 % of total isomers"

[[record]]
structure_notation = "CC(C)=CCC\\C(C)=C/C=C/C(C)=C/C=C/C(C)=C/C=C/C=C(C)/C=C/C=C(C)/C=C/C=C(\\C)CCC=C(C)C"
result = "20.6 % of total isomers"

[[record]]
structure_notation = "CC(C)=CCC/C(C)=C/C=C/C(C)=C/C=C/C(C)=C/C=C/C=C(C)/C=C/C=C(C)/C=C/C=C(\\C)CCC=C(C)C"
result = "3.0 % of total isomers"

